Data origin: ChEMBL document CHEMBL1124224

measurement.description: Inhibitory concentration against growth of cultured […] cells at 72 hrs.
Format: functional
condition.notes: Homo sapiens
pIC50: −log10 of the molar value.
property.name: pIC50

1. CCNCCCNCCCCNCCCNCC [BIS(ETHYL)SPERMINE] :: < 4.40
